Just for reference, ChEMBL document CHEMBL5058577 is where these values come from.

tested on: U2OS; assay: Multiplex assay against U2OS; assay type: toxicity, cell-based; conditions: human, 48 h, 1 µM, compound concentration 1 uM, replicate 2
EXPERIMENTAL ENDPOINT: Population Membrane Permeable-Phenotype (%)
Number only, in %; omit the unit.

Enquiry: Would you mind telling me what Population Membrane Permeable-Phenotype (%) value was observed for `CCCn1c(=O)c2[nH]c(C3CCCC3)nc2n(CCC)c1=O` ?
Return: 8

Enquiry: Look up Population Membrane Permeable-Phenotype (%) for this molecule: CNC[C@H](O)c1ccc(O)c(O)c1 [EPINEPHRINE]
Return: 4

Enquiry: Can you share its Population Membrane Permeable-Phenotype (%)? I mean this molecule: `Oc1c(CN2CCN(c3ccccn3)CC2)cc(Cl)c2cccnc12`
Return: 7

Enquiry: I would be grateful if you could share the reported Population Membrane Permeable-Phenotype (%) for `C[C@@H]1C[C@H]2[C@@H]3CCC4=CC(=O)C=C[C@]4(C)[C@@]3(F)[C@@H](O)C[C@]2(C)[C@@]1(O)C(=O)CO` .
Return: 3

Enquiry: Which Population Membrane Permeable-Phenotype (%) value is on record for `CN(C)CCCc1cc(C(=O)Nc2ccc(-c3ccncc3)cc2)ccc1O.Cl.Cl` ?
Return: 7

Enquiry: Any idea what Population Membrane Permeable-Phenotype (%) was measured for `CC1(COc2ccc3c(c2)ncn3-c2ccc3cccc(N4CCC(N)CC4)c3n2)COC1` ?
Return: 53

Enquiry: Field request: Population Membrane Permeable-Phenotype (%) | item: `COc1cc(C(=O)N(CCCc2ccccc2)Cc2ccc(CC(=O)O)cc2)cc(OC)c1C`
Return: 7

Enquiry: Looking for the measured Population Membrane Permeable-Phenotype (%) of `CCOc1c2c(c(OCC)c3ncccc13)CN(c1ccc(CS(=O)(=O)NC(=O)Cc3ccccc3OC)cc1C)C2=O` , can you help?
Return: 7

Enquiry: Can you share its Population Membrane Permeable-Phenotype (%)? I mean this molecule: Cc1ccccc1C(=O)Nc1ccc(C(=O)N2CCCC(N(C)C)c3ccccc32)cc1.Cl (configuration not stated)
Return: 7

Enquiry: What value of measured Population Membrane Permeable-Phenotype (%) is listed for `CC(C)(C)c1ccc(S(=O)(=O)Nc2ccc(Cl)cc2C(=O)c2cc[n+]([O-])cc2)cc1` ?
Return: 7

Enquiry: Would you mind telling me what Population Membrane Permeable-Phenotype (%) value was observed for `N#Cc1c(N)nc(SCc2csc(-c3ccc(Cl)cc3)n2)c(C#N)c1-c1ccc(OCCO)cc1` ?
Return: 6

Enquiry: Dear colleague, I am looking for the recorded Population Membrane Permeable-Phenotype (%) of the following molecule: Cl.Clc1ccc2nsnc2c1NC1=NCCN1 [TIZANIDINE HYDROCHLORIDE]
Return: 5

Enquiry: Fill in the blank: the reported Population Membrane Permeable-Phenotype (%) of `O=C(NCC(=O)N1CC[C@H](N[C@H]2CC[C@@](O)(c3ccc(-c4ncccn4)cn3)CC2)C1)c1cccc(C(F)(F)F)c1` is ____.
Return: 6

Enquiry: Any idea what Population Membrane Permeable-Phenotype (%) was measured for `O=C(NCCO)c1cccc(-c2cc(Nc3ccc(OC(F)(F)F)cc3)ncn2)c1` ?
Return: 9

Enquiry: Param item = `CCCC(CCC)C(=O)O` ; retrieve measured Population Membrane Permeable-Phenotype (%).
Return: 8

Enquiry: What does the data say about its Population Membrane Permeable-Phenotype (%)? Entry: CSc1ccccc1N1CCN(CCCCCC(=O)NC2CCCc3ccccc32)CC1.Cl (configuration not stated)
Return: 41

Enquiry: Reported Population Membrane Permeable-Phenotype (%) for `CN(C)c1ccnc2sc3c(=O)n(N4CCCCCC4)cnc3c12` : what is it?
Return: 5

Enquiry: Any idea what Population Membrane Permeable-Phenotype (%) was measured for CN1CCN2c3ncccc3Cc3ccccc3C2C1 (configuration not stated) ?
Return: 8

Enquiry: Param item = `CC(=O)NCCc1c(Cc2ccccc2)[nH]c2ccccc12` ; retrieve measured Population Membrane Permeable-Phenotype (%).
Return: 8

Enquiry: Which Population Membrane Permeable-Phenotype (%) value belongs to `N[C@@]1(C(=O)O)CO[C@H]2[C@H](C(=O)O)[C@H]21` ?
Return: 11

Enquiry: Give its Population Membrane Permeable-Phenotype (%) value. Item: `CC[C@H]1OC(=O)[C@H](C)[C@@H](O[C@H]2C[C@@](C)(OC)[C@@H](O)[C@H](C)O2)[C@H](C)[C@@H](O[C@@H]2O[C@H](C)C[C@H](N(C)C)[C@H]2O)[C@@]2(C)CC(C)=C(O2)[C@H](C)[C@@H](O)[C@]1(C)O`
Return: 12

Enquiry: Query: Population Membrane Permeable-Phenotype (%); subject: COc1ccc2c(c1)C(C(=O)N(Cc1ccc(N(C)C)cc1)c1ccc(C(C)C)cc1)CCC2.Cl (configuration not stated)
Return: 6

Enquiry: Endpoint output: Population Membrane Permeable-Phenotype (%) of `Cc1ccc(F)cc1C(=O)Nc1ccc(C(=O)N2Cc3cccn3Cc3ccccc32)c(Cl)c1` . Value?
Return: 13

Enquiry: # lookup: Population Membrane Permeable-Phenotype (%) of `CCNC1(C(N)=O)CCN(c2ncnc3c2nc(-c2ccccc2Cl)n3-c2ccc(Cl)cc2)CC1`
Return: 13

Enquiry: State the recorded Population Membrane Permeable-Phenotype (%) for this entry: `c1cc(OCCCN2CCCCC2)ccc1CN1CCCCC1`
Return: 9

Enquiry: // lookup Population Membrane Permeable-Phenotype (%) for `Cc1ccc(/C(=C\CN2CCCC2)c2ccccn2)cc1`
Return: 5

Enquiry: So what does the record say about Population Membrane Permeable-Phenotype (%) for O=S(=O)(c1ccccc1)c1cnc2c(N3CCNCC3)cccc2c1 [INTEPIRDINE] ?
Return: 3

Enquiry: Reported Population Membrane Permeable-Phenotype (%), molecule `O=C1COc2nccc(-c3ccccc3F)c2CN1Cc1cc(C(F)(F)F)cc(C(F)(F)F)c1` : ____
Return: 8

Enquiry: What does the record list as Population Membrane Permeable-Phenotype (%) for Cc1ccc(C(C)(O)c2nc3ccccc3s2)c(C)c1 (configuration not stated) ?
Return: 6

Enquiry: State the recorded Population Membrane Permeable-Phenotype (%) for this entry: `CN1CCN(c2nc3cc(C(F)(F)F)ccc3n3cccc23)CC1.O=C(O)/C=C\C(=O)O.O=C(O)/C=C\C(=O)O`
Return: 6

Enquiry: So what does the record say about Population Membrane Permeable-Phenotype (%) for `COc1c(C)cc(NC(=O)c2nn(Cc3ccc(F)cc3)c3c2CN(C(=O)c2ccc[nH]2)C[C@]3(C)C(N)=O)cc1C` ?
Return: 9

Enquiry: For the molecule shown here, `O=C(O)c1cc2ccccc2c(Cc2c(O)c(C(=O)O)cc3ccccc23)c1O` , give the reported Population Membrane Permeable-Phenotype (%).
Return: 9
